Numbers sourced from paper PMC8126888.

- measurement description: in vitro
- experimental context: human, microsomes, pH 7.4, HLM CLint (uL/min/mg), human liver microsomes
measured metric: microsomal CLint at 0.5 μM (µL/min/mg)
Form entry: value (µL/min/mg) — number only.

For orientation, consider the following solved cases.
COc1ccc(C(=O)N2CCOCC2)cc1S(=O)(=O)N(Cc1ccc(F)cc1)Cc1ccc(C(F)(F)F)nc1 [DNDI0003389644] : 190
COc1ccc(N2CCOCC2)cc1S(=O)(=O)N(Cc1ccc(F)cc1)Cc1ccc(F)cc1 [DNDI0003389118] : 82
COc1ccc(CNC2COC2)cc1S(=O)(=O)N(Cc1ccc(F)cc1)Cc1ccc(F)cc1 [DNDI0003389115] : 147
COc1ccc(S(C)(=O)=O)cc1S(=O)(=O)N(Cc1ccccc1)CC(C)(C)C [DNDI0003425524] : 1050

API: the following record is the query input.
Input line: // microsomal CLint at 0.5 μM lookup, key: COc1ccc(Cl)cc1S(=O)(=O)N(Cc1ccccc1)C(CO)CO [DNDI0003389933]
Output line: 109

* * *

Recorded CC50 for the following molecules
- measurement description: in vitro
- experimental context: human, HFF-1 cells
Please append the unit to your numeric answer.

COc1ccccc1S(=O)(=O)N(Cc1ccccc1)CC(O)c1ccc(F)cc1 (stereo not shown) [DNDI0003389317] : 10.5 µM
COc1ccc(Cl)cc1S(=O)(=O)N(Cc1ccccc1)C1COC(=O)OC1 [DNDI0003392146] : 54.8 µM
COc1ccc(-c2nc(C)no2)cc1S(=O)(=O)N(Cc1ccc(F)cc1)Cc1ccc(F)cc1 [DNDI0003388085] : 38.6 µM

Input line: Can you share its CC50? I mean this molecule: O=S(=O)(c1cc(F)ccc1F)N(Cc1ccccc1)C(CO)c1ccc(F)cc1 (stereo not shown) [DNDI0003378486]
Output line: 1.67 µM

* * *

- measurement description: in vitro
- experimental context: PAMPA
Each entry falls into one class according to its Papp; the ranges are band A (below 9 ×10⁻⁶ cm/s), band B (9 ×10⁻⁶ cm/s to below 20 ×10⁻⁶ cm/s), band C (20 ×10⁻⁶ cm/s or more)

COc1ccc(OC)c(S(=O)(=O)N(Cc2ccc(F)cc2)Cc2oc(C)nc2C)c1 [DNDI0003370420] : band C
CN(C)CCN(Cc1ccccc1)S(=O)(=O)c1ccc(N)cc1 [DNDI0003368290] : band A
COc1ccc(OC)c(S(=O)(=O)N(CCn2nc(C)cc2C)Cc2ccccc2)c1 [DNDI0003367308] : band B
COc1ccc(CN2CCOCC2)cc1S(=O)(=O)N(Cc1ccc(F)cc1)Cc1ccc(F)cc1 [DNDI0003370082] : band A
COc1ccc(Cl)cc1S(=O)(=O)N(Cc1ccccc1)C(Cc1ccccc1)C(N)=O (centres unmarked) [DNDI0003370116] : band A
COc1ccc(OC)c(S(=O)(=O)N(Cc2ccccc2)C2CCCN(C(C)=O)C2)c1 (centres unmarked) [DNDI0003367307] : band B

# next molecule below
Input line: Determine which band this molecule sits in: O=S(=O)(NCc1ccc(F)cc1)c1cccnc1OCc1ccccc1 [DNDI0003369120]
Output line: band B

* * *

- measurement description: physchem
- experimental context: HPLC, Ascentis Express RP Amide column, pH 7.4, eLogD, experimental
Below, each entry is listed alongside its reported chromatographic logD.
No unit in the answer, only the number.

Worked cases, answers included:
CNC(=O)c1ccc(OC)c(S(=O)(=O)N(CCOC)Cc2ccccc2)c1 [DNDI0003392128] : 2.7
COc1cc2c(cc1S(=O)(=O)N(Cc1ccccc1)Cc1ccccc1)S(=O)(=O)NCN2 [DNDI0003425513] : 3.6
COc1ccc(-c2nc(C)no2)cc1S(=O)(=O)N(Cc1ccc(F)cc1)Cc1ccc(F)cc1 [DNDI0003388085] : 4.6
O=S(=O)(c1cc(F)ccc1F)N(CCO)Cc1ccccc1 [DNDI0003368289] : 3.2

Input line: What chromatographic logD value was documented for this compound, O=S(=O)(c1ccccn1)N(Cc1ccccc1)Cc1ccccc1 [DNDI0003389646] ?
Output line: 4

Input line: Requested read-out: chromatographic logD. Entry: COCCOCN(Cc1ccccc1)S(=O)(=O)c1cc(OC)ccc1OC [DNDI0003425514]
Output line: 3.4

Input line: So what's the measured chromatographic logD for this one? COc1ncccc1S(=O)(=O)N(Cc1ccc(F)cc1)Cc1ccccn1 [DNDI0003370084]
Output line: 3.5

Input line: For the compound COc1ccc(OC)c(S(=O)(=O)N(Cc2ccc(F)cc2)Cc2ncccn2)c1 [DNDI0003370419] , what chromatographic logD is on record?
Output line: 3.4
